# Ki listing for each entry below
# systemName: IDH1 (Homo sapiens)
# Sequence (O75874 whole entry): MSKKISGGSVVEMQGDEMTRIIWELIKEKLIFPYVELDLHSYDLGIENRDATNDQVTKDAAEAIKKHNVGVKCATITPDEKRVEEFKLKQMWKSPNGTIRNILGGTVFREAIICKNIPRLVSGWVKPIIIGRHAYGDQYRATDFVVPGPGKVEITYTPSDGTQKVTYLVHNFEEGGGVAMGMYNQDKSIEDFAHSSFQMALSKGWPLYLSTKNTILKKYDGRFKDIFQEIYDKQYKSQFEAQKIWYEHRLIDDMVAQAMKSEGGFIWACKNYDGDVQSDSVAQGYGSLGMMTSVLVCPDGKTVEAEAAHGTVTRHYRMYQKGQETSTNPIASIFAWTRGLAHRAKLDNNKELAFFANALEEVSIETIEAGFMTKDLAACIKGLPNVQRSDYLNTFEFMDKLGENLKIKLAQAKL
# experimentDescription: Two-step binding kinetics (Example 1, assay not described)
# conditionDescription: 1st step; read-out: KiAPP (affinity for 1st step)
Quick note: give the figure in µM, leave out the unit.

compound="C=CC(=O)Nc1cccc(NC(=O)c2nn(Cc3ccc(C(F)(F)F)cc3)c3c2CN(C(=O)c2cn[nH]c2)CC3(C)C)c1 [FSM-05-157]" measuredmetric=Ki valueobserved=23.6

Here is another compound to look at.
Field Ki (entry CC1(C)CN(C(=O)c2cn[nH]c2)Cc2c(C(=O)Nc3cccc(NC(=O)CCCl)c3)nn(Cc3ccc(C(F)(F)F)cc3)c21 [FSM-05-141] ) reads 12.5

---

Below, each entry is listed with its recorded IC50.
# systemName: IDH1 (Homo sapiens)
# experimentDescription: IC50 in two trials and mean (Example 1, assay not described)
# Format: biochemical
# conditionDescription: Trial 1; read-out: IC50, Trial 1

Some molecules with known IC50 results, for comparison:
smiles=CC1(C)CN(C(=O)c2ccc[nH]2)Cc2c(C(=O)Nc3nccs3)nn(Cc3ccc(F)cc3)c21 valueobserved="> 10 µM"
smiles=CC1(C)CN(C(=O)c2ccc[nH]2)Cc2c(C(=O)Nc3cccc(C(=O)O)c3)nn(Cc3ccc(F)cc3)c21 valueobserved="> 10 µM"

Readout IC50 for CC1(C)CN(C(=O)c2cccs2)Cc2c(C(=O)Nc3nccs3)nn(Cc3ccc(F)cc3)c21 , test system IDH1 (Homo sapiens), was > 10 µM

---

# systemName: IDH1 (Homo sapiens)
# experimentDescription: IC50 in two trials and mean (Example 1, assay not described)
# Type: biochemical
# conditionDescription: Trial 2; read-out: IC50, Trial 2
measuredMetric: IC50 (µM)
// note: answer is a bare numeric in µM

Record excerpt, results attached:
smiles=CC1(C)CN(C(=O)c2cccs2)Cc2c(C(=O)Nc3cccc(C(=O)NC4CCCC4)c3)nn(Cc3ccc(F)cc3)c21 systemname="IDH1 (Homo sapiens)" measuredmetric=IC50 valueobserved=0.07
smiles=CC1(C)CN(C(=O)c2ccc[nH]2)Cc2c(C(=O)Nc3cccc(C(=O)NC4CCCC4)c3)nn(Cc3ccc(F)cc3)c21 systemname="IDH1 (Homo sapiens)" measuredmetric=IC50 valueobserved=0.095

Recorded result, CC1(C)CN(C(=O)c2ccc[nH]2)Cc2c(C(=O)Nc3ncco3)nn(Cc3ccc(F)cc3)c21 , IC50: 1.05

The reported IC50 of the molecule CC1(C)CN(C(=O)c2ccc[nH]2)Cc2c(C(=O)Nc3cccc(C(=O)NC4CC4)c3)nn(Cc3ccc(F)cc3)c21 was 0.961

The molecule identified as Cn1cccc1C(=O)N1Cc2c(C(=O)Nc3ccccc3)nn(Cc3ccc(F)cc3)c2C(C)(C)C1 registered its IC50 at 0.073

Consider CC1(C)CN(C(=O)c2cccs2)Cc2c(C(=O)Nc3ncco3)nn(Cc3ccc(F)cc3)c21 . Its measured IC50 is 1.23
